Known TGI of a selection of molecules
Tested on: MDA-MB-468 breast
ASSAY_PROCEDURE: NCI tumour cell line growth inhibition, 48 h
State just the number; it will be interpreted in µM.

Challenge: Give TGI (MDA-MB-468 breast) of the following molecule: CNCCNc1nc2ccccc2c2c(=O)c3cccc(OC)c3sc12
Response given: 3.06

Challenge: Tell me reported TGI for COc1cc(-c2ccc(-c3ccc(C(=N)N)s3)s2)cc(OC)c1OC , tested with MDA-MB-468 breast.
Response given: 3.7

Challenge: Hello, I am looking for reported TGI with MDA-MB-468 breast for CSC(=S)N/N=C(\C)c1ccccn1 . Could you help?
Response given: 1.21

* * *

Test system: MDA-MB-468 breast
ASSAY_PROCEDURE: NCI tumour cell line growth inhibition, 48 h
METRIC: GI50

Known GI50 results, listed for orientation:
Challenge: Looking for the measured GI50 of COc1ccc(-n2c(N)c(C(=O)NCCN3CCOCC3)c3nc4ccccc4nc32)cc1OC , can you help?
Response given: 17.9 µM

Challenge: Look at this molecule and give its reported GI50. Cc1ccc(/C=C(\C#N)n2nnc3cc(F)c(F)cc32)cc1
Response given: 10.3 µM

Challenge: # lookup: GI50 of COc1ccccc1Nc1nc(-c2cc3cccc(C(F)(F)F)c3oc2=O)cs1
Response given: 0.097 µM

Challenge: So what does the record say about GI50 for CS(=O)(=O)c1nccc(-c2c(-c3cccc(OCc4ccc(Cl)c(C(F)(F)F)c4)c3)nc3sccn23)n1 ?
Response given: 0.859 µM

Challenge: Name the reported GI50 value associated with the molecule Oc1ccc2ccccc2c1/C=N\Nc1ccccn1
Response given: 1.59 µM

Consider now this further molecule.
Challenge: Please give the measured GI50 for this molecule: Cn1c(=O)c(Cc2ccc(F)cc2F)cc2cnc(NC3CCOCC3)nc21
Response given: 19.6 µM

* * *

Test system: MDA-MB-468 breast
ASSAY_PROCEDURE: NCI tumour cell line growth inhibition, 48 h; in the data active means GI50 below about 0.43 µM; inactive means the rest
Please reply with one of these outcomes: label 1 for active, label 0 for inactive

These recorded examples may help you get a feel for the data.
Challenge: What call does the record list for COc1cccc2c1C(=O)c1c(O)c3c(c(O)c1C2=O)C[C@@](O)(C(C)=O)C[C@@H]3OC1CC(N)C(O)C(C)O1 (some centres undefined) ?
Response given: label 1

Challenge: How did this test come out for COc1ccc(/C=C(/C(=O)N2CCNCC2)c2cc(OC)c(OC)c(OC)c2)cc1O ?
Response given: label 0

Challenge: Could you check what this test reported for COc1ccc(/C=N/NC2=NC3C(S2)N(C)C(=O)N3C)cc1 (centres undefined) ?
Response given: label 0

Others:
Challenge: I'd appreciate the recorded outcome for O=C1NC(=NCc2ccccn2)S/C1=C\c1ccc2ncccc2c1 from this test.
Response given: label 0

Challenge: Field: outcome | Entry: Fc1ccc(Nc2nc(Nc3ccc(-c4nc5ccccc5[nH]4)cc3)nc(N3CCCC3)n2)cc1
Response given: label 0

Challenge: For this compound, state the assay outcome: CCOc1ccc2c(c1)/C(=C\C=C\C1CC(C)C3CC(OCC)CCC3N1CC)CC(C)N2CC (centres undefined)
Response given: label 1

Challenge: Returns: the outcome recorded for CN1CCC(n2cc(Nc3ncc4c(=O)n(-c5c(Cl)cccc5Cl)cc(Br)c4n3)cn2)CC1 in this assay.
Response given: label 0

Challenge: Test call, this compound: O=[N+]([O-])c1ccc2[nH]cc(-c3c4ccccc4cc4[nH]c5ccc([N+](=O)[O-])cc5c34)c2c1
Response given: label 0

Challenge: In this assay, the call recorded for CC(C)Sc1nc(NCCc2c[nH]c3ccccc23)c(C#N)c(-c2ccccc2)n1 was what?
Response given: label 0
